# Assay System: CYP2B6 (Homo sapiens)
# Sequence (P20813 whole entry): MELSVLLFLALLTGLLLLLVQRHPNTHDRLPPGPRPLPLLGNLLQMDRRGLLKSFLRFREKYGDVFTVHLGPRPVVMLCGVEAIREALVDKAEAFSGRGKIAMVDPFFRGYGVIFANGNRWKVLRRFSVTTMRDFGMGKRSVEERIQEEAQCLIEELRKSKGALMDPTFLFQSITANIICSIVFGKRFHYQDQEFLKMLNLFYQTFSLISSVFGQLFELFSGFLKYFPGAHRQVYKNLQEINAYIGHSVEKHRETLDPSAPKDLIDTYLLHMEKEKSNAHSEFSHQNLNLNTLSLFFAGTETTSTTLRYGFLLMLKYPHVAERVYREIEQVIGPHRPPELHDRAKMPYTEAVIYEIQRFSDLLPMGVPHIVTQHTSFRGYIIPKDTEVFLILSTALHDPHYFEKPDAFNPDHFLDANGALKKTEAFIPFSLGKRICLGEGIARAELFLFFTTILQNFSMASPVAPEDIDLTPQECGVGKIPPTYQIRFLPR
# Experiment Notes: biochemical
Measured Attribute: IC50
Param answer (str): number followed by unit.

In: IC50 lookup needed for COC(=O)[C@H](c1ccccc1Cl)N1CCc2sccc2C1 [clopidogrel] , thanks.
Out: 163 nM

----------
# Tested on: OATP1B1
# Construct: expressed in transfected cells; host or cells: MDCK-II
# Experiment Notes: OATP1B1 inhibition study in MDCK cells
# Assay type: in vitro ADME
# Setup Conditions: MDCK-II cell monolayer expressing OATP1B1, probe [3H]-estradiol-17β-D-glucuronide; rifampicin 100 μM, 2 μM substrate; read-out: % inhibition of OATP1B1-mediated transport of estradiol-17β-D-glucuronide, reference inhibitor
# Procedure: A 96-well cell culture plate containing a monolayer of MDCK-II cells grown on a permeable support and a corresponding receiver tray was used. […] Test article concentrations, including control samples, were evaluated by an LC-MS method. Signal to noise for probe substrates was calculated by dividing the uptake of the probe substrate in transporter-expressing cells by the uptake of probe substrate in control cells not expressing the transporter of interest. […]
Measured Attribute: inhibition at 5 min, 100 μM

In: Lab note: need inhibition at 5 min, 100 μM for CO[C@H]1/C=C/O[C@@]2(C)Oc3c(C)c(O)c4c(O)c(c(/C=N/N5CCN(C)CC5)c(O)c4c3C2=O)NC(=O)/C(C)=C\C=C\[C@H](C)[C@H](O)[C@@H](C)[C@@H](O)[C@@H](C)[C@H](OC(C)=O)[C@@H]1C [rifampicin, reference compound] on OATP1B1, anyone have it?
Out: 98.8%
